Origin of measurements: the supplement of paper PMC9112550

Recorded shrunken log2 fold change by entry
tested on: Escherichia coli TOP10; assay: shrunken log2 fold change of peptide-encoding DNA abundance (4.5 h post-induction vs induction); higher = less antimicrobial activity (less host growth inhibition); settings: time post-induction: 4.5 h; library: site-saturation at positions 5, 18, 19, 20
Quick one: just the number, no unit, thanks!

Look over these answered cases.
| Sequence string | shrunken log2 fold change |
| --- | --- |
| RRIRSRPPRLPRPRPRPYDFPRP | -0.195 |
| RRIRQRPPRLPRPRPRPTFTPRP | -0.222 |
| RRIRTRPPRLPRPRPRPFCEPRP | -0.0463 |

As a next step, examine the sequence that follows.
// output shrunken log2 fold change; input "RRIRNRPPRLPRPRPRPNLTPRP" ; system Escherichia coli TOP10 -0.335

====

tested on: Escherichia coli TOP10; experiment: shrunken log2 fold change of peptide-encoding DNA abundance (4.5 h post-induction vs induction); higher = less antimicrobial activity (less host growth inhibition); conditions: time post-induction: 4.5 h; library: site-saturation at positions 5, 18, 19, 20
Each record here notes measured shrunken log2 fold change.
Please respond with just the number, no unit label.

Illustrative cases are given below, each with its answer.
| Sequence string | Subject of test | shrunken log2 fold change |
| --- | --- | --- |
| RRIRNRPPRLPRPRPRPTCDPRP | Escherichia coli TOP10 | 0.0801 |
| RRIRSRPPRLPRPRPRPEKVPRP | Escherichia coli TOP10 | -0.1 |
| RRIRSRPPRLPRPRPRPFTEPRP | Escherichia coli TOP10 | -0.0824 |

Find the measured shrunken log2 fold change of "RRIRIRPPRLPRPRPRPYHLPRP" and report it. -0.115

Specify reported shrunken log2 fold change for the sequence shown: "RRIRSRPPRLPRPRPRPMEIPRP" 0.014

For the sequence "RRIRARPPRLPRPRPRPLHHPRP" , give its measured shrunken log2 fold change value. -0.0724

Look up shrunken log2 fold change of "RRIRRRPPRLPRPRPRPEQAPRP" and report it. -0.0266

Give reported shrunken log2 fold change value for "RRIRKRPPRLPRPRPRPDPEPRP" -0.0797

In one line, give reported shrunken log2 fold change of the entry "RRIRPRPPRLPRPRPRPYRSPRP" . -0.295

Complete the entry with shrunken log2 fold change for "RRIRIRPPRLPRPRPRPWEGPRP" -0.152

Look up shrunken log2 fold change of "RRIRDRPPRLPRPRPRPFFCPRP" and report it. 0.55

// Input: "RRIRWRPPRLPRPRPRPLYTPRP" . Output its shrunken log2 fold change only. -0.24

Identify measured shrunken log2 fold change corresponding to "RRIRIRPPRLPRPRPRPVGMPRP" 0.0752

====

Listed sequences paired with reported shrunken log2 fold change
tested on: Escherichia coli TOP10; test: shrunken log2 fold change of peptide-encoding DNA abundance (4.5 h post-induction vs induction); higher = less antimicrobial activity (less host growth inhibition); conditions: time post-induction: 4.5 h; library: site-saturation at positions 5, 18, 19, 20
In your answer, state the number alone without any accompanying words.

Recorded results for 5 sequences are shown here.
| Sequence string | Reading |
| --- | --- |
| RRIRSRPPRLPRPRPRPMLVPRP | -0.0894 |
| RRIRVRPPRLPRPRPRPQRVPRP | 0.0942 |
| RRIRLRPPRLPRPRPRPQIPPRP | -0.273 |
| RRIRPRPPRLPRPRPRPGDGPRP | 0.979 |
| RRIRERPPRLPRPRPRPQFVPRP | -0.312 |

Give me measured shrunken log2 fold change, please, for this sequence: "RRIRKRPPRLPRPRPRPQRCPRP" 0.269

Provide measured shrunken log2 fold change value, entry: "RRIRMRPPRLPRPRPRPQARPRP" 0.575

Return shrunken log2 fold change (reported value) for this sequence: "RRIRPRPPRLPRPRPRPPCPPRP" 0.294

For the sequence "RRIRWRPPRLPRPRPRPIEFPRP" , give its reported shrunken log2 fold change. -0.0119

State its shrunken log2 fold change for this sequence: "RRIRTRPPRLPRPRPRPAFGPRP" 0.155

Look up shrunken log2 fold change of "RRIRWRPPRLPRPRPRPRVEPRP" and report it. 0.0508

Please report shrunken log2 fold change for the following sequence: "RRIRRRPPRLPRPRPRPSSWPRP" -0.162

Determine from records and report shrunken log2 fold change for "RRIRYRPPRLPRPRPRPNGWPRP" -0.0316

====

test system: Escherichia coli TOP10; assay: shrunken log2 fold change of peptide-encoding DNA abundance (4.5 h post-induction vs induction); higher = less antimicrobial activity (less host growth inhibition); conditions: time post-induction: 4.5 h; library: site-saturation at positions 5, 18, 19, 20
Would you please tag the item rule met when its shrunken log2 fold change is -0.002 or above, and rule not met when it is below?

Please review the entries below; each comes with its answer.
| Sequence string | Class label |
| --- | --- |
| RRIRYRPPRLPRPRPRPQTDPRP | rule not met |
| RRIRNRPPRLPRPRPRPCLSPRP | rule not met |
| RRIRSRPPRLPRPRPRPSFTPRP | rule not met |

Confirm if shrunken log2 fold change reported for the sequence "RRIRGRPPRLPRPRPRPWLFPRP" is -0.002 or above. rule met

Please indicate if the recorded shrunken log2 fold change for "RRIRHRPPRLPRPRPRPLLAPRP" meets or exceeds -0.002. rule met

# bool: shrunken log2 fold change of "RRIRKRPPRLPRPRPRPQKFPRP" >= -0.002 rule met

Hello, I need to know if "RRIRDRPPRLPRPRPRPGHYPRP" has measured shrunken log2 fold change not below -0.002. Thanks! rule met

Reported shrunken log2 fold change reaches at least -0.002 for "RRIRNRPPRLPRPRPRPRNEPRP" ? rule met

Does shrunken log2 fold change meet or surpass -0.002 for "RRIRMRPPRLPRPRPRPLITPRP" ? rule met

Tell me whether shrunken log2 fold change is at least -0.002 here: "RRIRKRPPRLPRPRPRPRWAPRP" rule met

Say whether "RRIRDRPPRLPRPRPRPDCYPRP" shows shrunken log2 fold change of -0.002 or more. rule met

====

Reported shrunken log2 fold change values follow for various sequences
tested on: Escherichia coli TOP10; assay: shrunken log2 fold change of peptide-encoding DNA abundance (4.5 h post-induction vs induction); higher = less antimicrobial activity (less host growth inhibition); conditions: time post-induction: 4.5 h; library: site-saturation at positions 5, 18, 19, 20
Respond using a number only.

| Sequence string | Reading |
| --- | --- |
| RRIRDRPPRLPRPRPRPAQDPRP | 0.684 |

Indicate the recorded shrunken log2 fold change value for this sequence: "RRIRTRPPRLPRPRPRPCQKPRP" 0.0124

// fetch shrunken log2 fold change given entry "RRIRDRPPRLPRPRPRPWTNPRP" -0.111

Kindly indicate its recorded shrunken log2 fold change. Item: "RRIRVRPPRLPRPRPRPPDGPRP" 0.422

Give me measured shrunken log2 fold change, please, for this sequence: "RRIRKRPPRLPRPRPRPFDYPRP" -0.121

Output shrunken log2 fold change of "RRIRKRPPRLPRPRPRPRMNPRP" 0.115

Look up and report measured shrunken log2 fold change for this entry: "RRIRIRPPRLPRPRPRPQAMPRP" -0.0316

Dear colleague, please send me the reported shrunken log2 fold change for "RRIRKRPPRLPRPRPRPTRPPRP" when you can. 0.764

Look up and report measured shrunken log2 fold change for this entry: "RRIRPRPPRLPRPRPRPYRFPRP" -0.261

Consider the sequence "RRIRYRPPRLPRPRPRPSRMPRP" . State its measured shrunken log2 fold change. -0.303

Retrieve shrunken log2 fold change measured for "RRIRYRPPRLPRPRPRPKCCPRP" and print it. 0.013

Indicate its recorded shrunken log2 fold change; the sequence in question is "RRIRKRPPRLPRPRPRPQDFPRP" 0.00806

====

test system: Escherichia coli TOP10; experiment: shrunken log2 fold change of peptide-encoding DNA abundance (4.5 h post-induction vs induction); higher = less antimicrobial activity (less host growth inhibition); conditions: time post-induction: 4.5 h; library: site-saturation at positions 5, 18, 19, 20;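 also: peptides expressed intracellularly from a pBAD plasmid library in pooled LB shake-flask culture, induced with 0.3% L-arabinose, DNA abundance read by NGS, three biological replicates, DESeq2 with apeglm shrinkage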
Examples of sequences with documented shrunken log2 fold change follow.
// print number alone

| Sequence string | Reading |
| --- | --- |
| RRIRYRPPRLPRPRPRPRWQPRP | 0.033 |
| RRIRCRPPRLPRPRPRPVYYPRP | -0.363 |
| RRIRERPPRLPRPRPRPITEPRP | -0.159 |
| RRIRVRPPRLPRPRPRPKDGPRP | 0.0237 |
| RRIRNRPPRLPRPRPRPISFPRP | -0.0972 |
| RRIRKRPPRLPRPRPRPSYWPRP | -0.144 |

Identify measured shrunken log2 fold change associated with "RRIRYRPPRLPRPRPRPRRWPRP" 0.309

Identify the reported shrunken log2 fold change for the following entry. "RRIRTRPPRLPRPRPRPWGEPRP" 0.183

Let me know recorded shrunken log2 fold change for "RRIRNRPPRLPRPRPRPLDWPRP" , thanks. -0.0554

State, in one line, measured shrunken log2 fold change of "RRIRQRPPRLPRPRPRPLRFPRP" -0.041

In one line, give reported shrunken log2 fold change of the entry "RRIRDRPPRLPRPRPRPVRGPRP" . 1

// fetch shrunken log2 fold change given entry "RRIRNRPPRLPRPRPRPLENPRP" -0.0075
